Experiment: self-splicing fitness, log relative to wild type (ln ratio); higher = more splicing; Tetrahymena group I intron in knt gene, E. coli kanamycin selection, DiMSum; sequences stand for … in CUCUCU…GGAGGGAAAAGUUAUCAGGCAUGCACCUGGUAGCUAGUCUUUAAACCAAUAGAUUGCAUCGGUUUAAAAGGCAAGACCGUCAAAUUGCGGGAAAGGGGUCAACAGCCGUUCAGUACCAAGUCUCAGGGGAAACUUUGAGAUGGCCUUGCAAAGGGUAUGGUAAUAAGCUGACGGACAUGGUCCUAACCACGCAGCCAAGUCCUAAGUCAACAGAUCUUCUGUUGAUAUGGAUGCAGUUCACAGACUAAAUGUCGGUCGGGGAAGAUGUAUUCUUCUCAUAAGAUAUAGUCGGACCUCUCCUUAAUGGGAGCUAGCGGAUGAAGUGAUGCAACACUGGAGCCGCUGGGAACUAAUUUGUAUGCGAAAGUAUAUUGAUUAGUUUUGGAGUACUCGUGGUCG;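 note: selection with 25 µg/mL kanamycin versus none on LB agar overnight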
Details: 30 °C
property: self-splicing fitness (ln)

- sequence.data: "GUACAGCAAUAUUACGACAU"
  data.value: -0.299
- sequence.data: "GACUAGCAAUAUUACGAGCU"
  data.value: -1.61
- sequence.data: "GGGCAGCAAUAUUACGGAAA"
  data.value: -2.77

Can you look up the measured self-splicing fitness (ln) of UUCGAGCAAUAUUACGCUGG for me?
-0.924

Can you look up the measured self-splicing fitness (ln) of AAAUAGCAAUAUUACGUUGC for me?
-2.63

Can you look up the measured self-splicing fitness (ln) of AGCUAGCAAUAUUACGGGAU for me?
-2.04

Can you look up the measured self-splicing fitness (ln) of CUCAAGCAAUAUUACGGGUG for me?
-1.43

Can you look up the measured self-splicing fitness (ln) of CCUGAGCAAUAUUACGAACC for me?
-3.35

====

Experiment: self-splicing fitness, log relative to wild type (ln ratio); higher = more splicing; Tetrahymena group I intron in knt gene, E. coli kanamycin selection, DiMSum; sequences stand for … in CUCUCU…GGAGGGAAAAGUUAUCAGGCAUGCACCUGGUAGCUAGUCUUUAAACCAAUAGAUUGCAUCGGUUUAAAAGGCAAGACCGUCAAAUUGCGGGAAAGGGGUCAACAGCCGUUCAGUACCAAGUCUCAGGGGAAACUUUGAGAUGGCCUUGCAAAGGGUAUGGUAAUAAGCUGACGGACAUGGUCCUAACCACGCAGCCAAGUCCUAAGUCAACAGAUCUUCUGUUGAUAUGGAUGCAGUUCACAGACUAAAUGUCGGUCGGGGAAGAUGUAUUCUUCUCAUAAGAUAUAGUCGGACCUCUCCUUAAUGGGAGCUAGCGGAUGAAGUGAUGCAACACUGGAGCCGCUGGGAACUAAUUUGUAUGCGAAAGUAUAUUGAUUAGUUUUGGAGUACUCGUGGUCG
Conditions: 30 °C
property: self-splicing fitness (ln)
API doc: respond with a numeric literal and nothing else, no unit.

Known results for sequences:
- sequence.data: "CACAAGCAAUAUUACGAUGA"
  property: "self-splicing fitness (ln)"
  data.value: -2.99
- sequence.data: "UCUCAGCAAUAUUACGCAGU"
  property: "self-splicing fitness (ln)"
  data.value: -2.93
- sequence.data: "AGUAAGCAAUAUUACGAGUC"
  property: "self-splicing fitness (ln)"
  data.value: -2.96

Can you look up the measured self-splicing fitness (ln) of CGAAAGCAAUAUUACGACGA for me?
-0.59

Can you look up the measured self-splicing fitness (ln) of GCACAGCAAUAUUACGAAUA for me?
-1.42

Can you look up the measured self-splicing fitness (ln) of AGGUAGCAAUAUUACGUUUG for me?
-3.58

Can you look up the measured self-splicing fitness (ln) of UGAGAGCAAUAUUACGGUGC for me?
-2.02

Can you look up the measured self-splicing fitness (ln) of AGCCAGCAAUAUUACGCAGA for me?
-3.39
